- Protocol description: qHTS of pediatric cancer cell lines to identify multiple opportunities for drug repurposing: Confirmatory screen for NB1643 cells (AID 1347109); also: nearly all actives have a fitted effect of over 45% in size
- Cond: NB1643 neuroblastoma cell viability; series mostly up to 45.9 µM
Records with an inconclusive call do not appear. Calls of active or inactive are those of the source. Calls follow the shape of the dose curve; as a rule, active = well fitted cell-killing curve with a large enough effect; inconclusive = small, poorly fitted or top-dose-only effect, or effect the other way; inactive = no such curve, though single readings can be large or run the other way.
Hi! Could you answer with just one of these? active, inactive

Entry COc1cccc(Nc2c(C(N)=O)cnc3c(C)cc(S(=O)(=O)c4cccc(C(=O)N(C)C)c4)cc23)c1 : call = ? inactive

Please state the recorded outcome for this compound: C[C@@H](Oc1cc(-n2cnc3ccc(CN4CCN(C)CC4)cc32)sc1C(N)=O)c1ccccc1C(F)(F)F active

Fill in: this test's call for COc1cc2c(NC3CCN(C(C)C)CC3)nc(C3CCCCC3)nc2cc1OCCCN1CCCC1 is ___ active

// return assay outcome for Cc1cnc(-c2cnc(NCCNc3ccc(C#N)cn3)nc2-c2ccc(Cl)cc2Cl)[nH]1 inactive

For CCN1CCN(Cc2ccc(-c3cc4c(N[C@H](C)c5ccccc5)ncnc4[nH]3)cc2)CC1 , what call appears in the results of this test? active

Please let me know the test result on file for C=CC(=O)Nc1cccc(Oc2nc(Nc3ccc(N4CCN(C)CC4)cc3)ncc2Cl)c1 . active

Hi, sorry to bother you, what did the test record for NC(=O)Nc1cc(-c2cccc(F)c2)sc1C(=O)N[C@H]1CCCNC1 ? active

Per the assay record, what outcome was assigned to CCNC(=O)Nc1ccc2ncc(Nc3ccc(C)cc3)nc2n1 ? inactive

Any idea what this test logged for CC(C)CC(=O)Nc1n[nH]c2c1CN(C(=O)C1CCN(C)CC1)C2(C)C ? inactive
